Origin of values: patent US20190134153A1

Below, each of the sequences is paired with its reported % activity value.
Biological target: PKG1β(h) (Homo sapiens, UniProt Q13976)
Sequence (Q13976 1-686 isoform Q13976-2): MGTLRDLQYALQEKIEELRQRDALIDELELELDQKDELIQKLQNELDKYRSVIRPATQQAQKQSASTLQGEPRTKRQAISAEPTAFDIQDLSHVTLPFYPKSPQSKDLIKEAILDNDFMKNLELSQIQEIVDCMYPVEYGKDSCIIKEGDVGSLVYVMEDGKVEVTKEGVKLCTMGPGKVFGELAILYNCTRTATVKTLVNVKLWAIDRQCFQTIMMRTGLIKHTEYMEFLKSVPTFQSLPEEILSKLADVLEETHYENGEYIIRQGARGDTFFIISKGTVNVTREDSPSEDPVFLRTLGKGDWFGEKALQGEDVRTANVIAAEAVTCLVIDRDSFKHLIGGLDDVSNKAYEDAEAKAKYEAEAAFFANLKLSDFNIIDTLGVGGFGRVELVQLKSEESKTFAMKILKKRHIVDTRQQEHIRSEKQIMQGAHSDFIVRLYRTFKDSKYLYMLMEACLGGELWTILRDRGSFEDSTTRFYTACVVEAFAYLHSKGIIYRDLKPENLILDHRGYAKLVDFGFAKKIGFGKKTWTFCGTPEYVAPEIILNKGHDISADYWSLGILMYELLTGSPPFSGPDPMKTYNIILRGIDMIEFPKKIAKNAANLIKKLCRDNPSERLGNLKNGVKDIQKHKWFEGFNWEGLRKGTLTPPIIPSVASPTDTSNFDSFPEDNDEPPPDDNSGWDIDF
Experiment: Kinase Profiling Assay
Type: biochemical
Settings: 100 μM
Value and unit, in that order.

# example entries with known answers
| sequence | reported.property | test.result |
| --- | --- | --- |
| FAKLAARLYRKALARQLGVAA [MMI-0300] | % activity | 50% |
| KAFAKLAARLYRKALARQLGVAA [MMI-0400] | % activity | 53% |
| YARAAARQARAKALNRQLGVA [MMI-0200] | % activity | 57% |

# evaluate next
# sequence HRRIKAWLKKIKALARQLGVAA [MMI-0500] ; its % activity = 24%
